Target: human TYK2 kinase domain (JH1) (Homo sapiens)
Construct: recombinantly generated catalytic kinase (also known as JH1) domain of human JAK1, JAK2, JAK3 and TYK2
Sequence (P29597 897-1176 limits assumed): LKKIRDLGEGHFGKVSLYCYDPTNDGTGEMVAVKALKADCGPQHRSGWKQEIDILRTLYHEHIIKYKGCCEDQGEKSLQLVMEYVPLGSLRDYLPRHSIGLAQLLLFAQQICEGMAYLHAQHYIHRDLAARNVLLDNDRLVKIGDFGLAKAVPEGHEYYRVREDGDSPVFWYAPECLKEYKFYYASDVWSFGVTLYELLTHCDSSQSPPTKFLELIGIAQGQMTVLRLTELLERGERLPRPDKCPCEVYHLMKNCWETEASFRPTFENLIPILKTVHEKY
Assay: JH1 biochemical assay for TYK2 (ADP-Glo kinase assay, recombinant JH1 catalytic domain, JAK3-974 peptide, 10 μM ATP)
Conditions: JH1 kinase domain, ADP-Glo
pIC50: −log10 of the molar value. Structures can show the parent of a compound that is named as a salt.
Exercise: for every item that follows, state its recorded pIC50.

[
  {
    "Molecule": "C[C@@H]1CN(c2ccnn3cc(-c4cnc(N(C)C)nc4)cc23)C(=O)[C@]1(C#N)C1CC1",
    "Val": "7.30 to 7.70"
  },
  {
    "Molecule": "C[C@@H]1CN(c2ccnn3cc(-c4ccc(N(C)C)nc4)cc23)C(=O)[C@]1(C#N)C1CC1",
    "Val": "> 8.30"
  },
  {
    "Molecule": "Cn1cc(-c2cc3c(N4CC[C@@](C)(C#N)C4=O)ccnn3c2)cn1 (single isomer, unassigned)",
    "Val": "7.00 to 7.30"
  },
  {
    "Molecule": "C[C@@H]1CN(c2ccnn3c(F)c(-c4cnn(C)c4)cc23)C(=O)[C@]1(C#N)C1CC1",
    "Val": "7.00 to 7.30"
  },
  {
    "Molecule": "Cn1cc(-c2cc3c(N4C[C@H](C(F)F)[C@@](C#N)(C5CC5)C4=O)ccnn3c2)cn1 (racemic)",
    "Val": "< 7.00"
  },
  {
    "Molecule": "C[C@@H]1CN(c2ccnn3cc(-c4cncc(C(F)(F)F)c4)cc23)C(=O)[C@]1(C#N)C1CC1",
    "Val": "7.00 to 7.30"
  },
  {
    "Molecule": "Cc1cc(-c2cc3c(N4CC[C@@](C#N)(C5CC5)C4=O)ccnn3c2)on1",
    "Val": "7.30 to 7.70"
  },
  {
    "Molecule": "N#C[C@@]1(C2CC2)CCN(c2ccnn3cc(-c4cnn(C(F)F)c4)cc23)C1=O",
    "Val": "7.70 to 8.30"
  },
  {
    "Molecule": "C[C@@H]1CN(c2ccnn3cc(-c4c[nH]c5ncccc45)cc23)C(=O)[C@]1(C#N)C1CC1",
    "Val": "7.70 to 8.30"
  },
  {
    "Molecule": "C[C@H]1C[C@](C#N)(C2CC2)C(=O)N1c1ccnn2cc(-c3cnn(C)c3)cc12",
    "Val": "< 7.00"
  }
]

Batch lookup, pIC50 per entry.
1. Cc1csc(-c2cc3c(N4C[C@@H](C)[C@@](C#N)(C5CC5)C4=O)ccnn3c2)n1 [Example 113, trifluoroacetate]
2. CCOCCn1cc(-c2cc3c(N4C[C@@H](C)[C@@](C#N)(C5CC5)C4=O)ccnn3c2)cn1
3. C[C@@H]1CN(c2nc(-c3ccnc(C#N)c3)cn3nccc23)C(=O)[C@]1(C#N)C1CC1

result:
["7.30 to 7.70", "> 8.30", "7.70 to 8.30"]

Batch lookup, pIC50 per entry.
1. C[C@@H]1CN(c2ccnn3cc(-c4cc5ccccn5n4)cc23)C(=O)[C@]1(C#N)C1CC1 [Example 104, trifluoroacetate]
2. CCn1cc(-c2cn3nccc3c(N3C[C@@H](C)[C@@](C#N)(C4CC4)C3=O)n2)cn1

result:
["> 8.30", "> 8.30"]
